assay: Immunosuppressive activity in BALB/c mouse T cells assessed as inhibition of ConA-induced T cell proliferation incubated 24 hrs post ConA-induction for 72 hrs by MTT assay; format: functional, cell-based
Reported IC50 values follow for various compounds
The reply should contain only the number, in µM.

Illustrative cases are given below, each with its answer.
Line Notation: COc1cc(-c2nnc(SCc3c(F)cccc3F)o2)ccc1O
Assay Result: 10.1

Line Notation: COc1cccc(COc2ccc(-c3nnc(SCc4cccc(OC)c4)o3)cc2OC)c1
Assay Result: 10.1

Line Notation: COc1cc(-c2nnc(SCc3cccc(Br)c3)o2)ccc1O
Assay Result: 48.1

Line Notation: COc1cc(-c2nnc(SCc3ccccc3Cl)o2)ccc1O
Assay Result: 8.43

API: the following record is the query input.
Given item COc1cc(-c2nnc(SCc3ccc([N+](=O)[O-])cc3)o2)ccc1OCc1ccc([N+](=O)[O-])cc1 , the value recorded as its IC50 is 7.6

====

experiment: Immunosuppressive activity in BALB/c mouse T cells assessed as inhibition of ConA-induced T cell proliferation incubated 24 hrs post ConA-induction for 72 hrs by MTT assay; assay type: functional, cell-based
Measured Metric: pIC50
A value of pIC50 is the negative decimal logarithm of a concentration given in moles per litre.

Illustrative cases are given below, each with its answer.
Line Notation: COc1cc(-c2nnc(SCc3ccc(F)cc3F)o2)ccc1O
pIC50: 5.01

Line Notation: COc1cc(-c2nnc(SCc3cccc([N+](=O)[O-])c3)o2)ccc1O
pIC50: 4.80

Line Notation: COc1cc(-c2nnc(SCc3ccccc3F)o2)ccc1OCc1ccccc1F
pIC50: 5.32

Given item COc1cc(-c2nnc(SCc3ccc(Br)cc3)o2)ccc1OCc1ccc(Br)cc1 , the value recorded as its pIC50 is 4.76

Given item COc1cc(-c2nnc(SCc3cccc(Cl)c3)o2)ccc1O , the value recorded as its pIC50 is 5.08

Given item COc1cc(-c2nnc(SCc3ccc(Br)cc3)o2)ccc1O , the value recorded as its pIC50 is 5.05

Given item COc1cc(-c2nnc(SCc3cccc([N+](=O)[O-])c3)o2)ccc1OCc1cccc([N+](=O)[O-])c1 , the value recorded as its pIC50 is 4.91

Given item COc1cc(-c2nnc(SCc3ccc(C)cc3)o2)ccc1OCc1ccc(C)cc1 , the value recorded as its pIC50 is 5.04

Given item COc1cc(-c2nnc(SCc3ccc(F)cc3F)o2)ccc1OCc1ccc(F)cc1F , the value recorded as its pIC50 is 4.89

Given item COc1cc(-c2nnc(SCc3ccccc3[N+](=O)[O-])o2)ccc1O , the value recorded as its pIC50 is 5.02

====

assay: Cytotoxicity against BALB/c mouse lymph node cells after 24 hrs by MTT assay; type: cell-based
Measured Metric: CC50 at 24 h (µM)
The reply should contain only the number, in µM.

Illustrative cases are given below, each with its answer.
Line Notation: COc1cc(-c2nnc(SCc3cccc(Cl)c3)o2)ccc1O
CC50 at 24 h [µM]: 470
//
Line Notation: COc1cc(-c2nnc(SCc3cc(F)cc(F)c3)o2)ccc1OCc1cc(F)cc(F)c1
CC50 at 24 h [µM]: 266
//
Line Notation: COc1cc(-c2nnc(SCc3ccc(Br)cc3)o2)ccc1OCc1ccc(Br)cc1
CC50 at 24 h [µM]: 225
//
Line Notation: COc1cc(-c2nnc(SCc3ccccc3)o2)ccc1OCc1ccccc1
CC50 at 24 h [µM]: 197
//
Line Notation: COc1cc(-c2nnc(SCc3c(F)cccc3F)o2)ccc1O
CC50 at 24 h [µM]: 575
//
Line Notation: COc1cc(-c2nnc(SCc3ccc(C)cc3)o2)ccc1O
CC50 at 24 h [µM]: 549
//
Line Notation: COc1cc(-c2nnc(SCc3ccccc3C)o2)ccc1O
CC50 at 24 h [µM]: 592
//
Line Notation: COc1cc(-c2nnc(SCc3ccc([N+](=O)[O-])cc3)o2)ccc1O
CC50 at 24 h [µM]: 688

Given item COc1cc(-c2nnc(SCc3ccc([N+](=O)[O-])cc3)o2)ccc1OCc1ccc([N+](=O)[O-])cc1 , the value recorded as its CC50 at 24 h is 156

Given item COc1cc(-c2nnc(SCc3ccccc3Cl)o2)ccc1O , the value recorded as its CC50 at 24 h is 564

Given item COc1cc(-c2nnc(SCc3ccc(Cl)cc3)o2)ccc1OCc1ccc(Cl)cc1 , the value recorded as its CC50 at 24 h is 136

Given item COc1cc(-c2nnc(SCc3ccccc3Br)o2)ccc1OCc1ccccc1Br , the value recorded as its CC50 at 24 h is 151
